- Test system: A549
- procedureDetails: Anticancer activity against human A549 cells assessed as cell growth inhibition measured after 24 hrs by MTT assay
- Assay type: functional, cell-based
- setupConditions: A549, 24 h
measuredEndpoint: pIC50
Formally, pIC50 is defined as -log10 of the concentration c, with c in mol/L.

Per the record, O=C1C2=CC=CC3C=CC=C(C23)C12N[C@@H](Cc1ccc(O)cc1)[C@@H]([N+](=O)[O-])[C@H]2c1ccc(Cl)cc1 (stereo partly drawn) has pIC50 of 4.40

Per the record, COc1ccc([C@@H]2[C@H]([N+](=O)[O-])[C@H](Cc3ccc(O)cc3)NC23C(=O)c2cccc4cccc3c24)cc1 (stereo partly drawn) has pIC50 of 4.02

Per the record, O=C1C2=CC=CC3C=CC=C(C23)C12N[C@@H](Cc1ccc(O)cc1)[C@@H]([N+](=O)[O-])[C@H]2c1ccc(Br)cc1 (stereo partly drawn) has pIC50 of 4.18

---

I'd be grateful if you could share measured IC50 for these entries.
- Tested on: A549
- procedureDetails: Anticancer activity against human A549 cells assessed as cell growth inhibition by MTT assay
- Format: functional, cell-based
Quick note: give the figure in µM, leave out the unit.

Per the record, "CCOC(=O)[C@H]1CCCN1C(=O)Cc1noc2ccccc12" has IC50 of 361

Per the record, "N#C[C@@H]1CCCN1C(=O)Cc1noc2ccccc12" has IC50 of 90.3

Per the record, "NC(=O)[C@@H]1CCCN1C(=O)Cc1noc2ccccc12" has IC50 of 4.72

---

- Tested on: MDA-MB-435
- procedureDetails: Growth inhibition of human MDA-MB-435 cells assessed as cell growth inhibition by SRB assay
- Type: functional
measuredEndpoint: GI50 (µM)
Quick note: give the figure in µM, leave out the unit.

Per the record, N#CC1=C(N)OC2=C(C(=O)CO2)C12C(=O)Nc1ccc(I)cc12 (centres undefined) has GI50 of 27.3

Per the record, N#CC1=C(N)OC2=C(C(=O)CO2)C12C(=O)Nc1ccccc12 (centres undefined) has GI50 of 29.9

Per the record, N#CC1=C(N)OC2=C(C(=O)CO2)C12C(=O)Nc1ccc(Br)cc12 (centres undefined) has GI50 of 1.8

Per the record, N#CC1=C(N)OC2=C(C(=O)CO2)C12C(=O)Nc1ccc(Cl)cc12 (centres undefined) has GI50 of 2.1

---

I'd be grateful if you could share measured pIC50 for these entries.
- System: MCF7
- procedureDetails: Anticancer activity against human MCF7 cells assessed as cell growth inhibition measured after 48 hrs by WST-1 assay
- Assay type: functional, cell-based
- setupConditions: MCF7, 48 h
Formally, pIC50 is defined as -log10 of the concentration c, with c in mol/L.

Per the record, "O=C1/C(=C/c2ccc(Br)cc2)CCC[C@]12[C@@H](c1ccc(Br)cc1)[C@@H]1CSCN1[C@]21C(=O)Nc2ccccc21" has pIC50 of 4.81

Per the record, "O=C1/C(=C/c2cccc(F)c2)CCC[C@]12[C@@H](c1cccc(F)c1)[C@@H]1CSCN1[C@]21C(=O)Nc2ccccc21" has pIC50 of 4.81

Per the record, "O=c1[nH]cc(F)c(=O)[nH]1" has pIC50 of 4.11

Per the record, "COc1ccc(/C=C2\CCC[C@@]3(C2=O)[C@@H](c2ccc(OC)cc2)[C@@H]2CSCN2[C@]32C(=O)Nc3ccccc32)cc1" has pIC50 of 4.61

---

- Test system: FaDu
- procedureDetails: Anticancer activity against human FaDu cells assessed as cell growth inhibition measured after 48 hrs
- Type: functional, cell-based
- setupConditions: fadu
measuredEndpoint: pIC50
Formally, pIC50 is defined as -log10 of the concentration c, with c in mol/L.

Measured pIC50 (FaDu), entry "BLEOMYCIN" : 4.51

---

- Test system: FaDu
- procedureDetails: Anticancer activity against human FaDu cells assessed as cell growth inhibition measured after 48 hrs
- Format: functional, cell-based
- setupConditions: Homo sapiens, FaDu, 48 h
measuredEndpoint: IC50

Per the record, COc1ccccc1/C=C1\CN(/C=C/c2ccccc2)C[C@]2(C1=O)[C@H](c1ccccc1OC)[C@@H](Cc1ccccc1)NC21C(=O)Nc2ccccc21 (stereo partly drawn) has IC50 of ≥ 19 µM

Per the record, O=C1Nc2ccccc2C12N[C@H](Cc1ccccc1)[C@@H](c1ccccc1Br)[C@@]21CN(/C=C/c2ccccc2)C/C(=C\c2ccccc2Br)C1=O (stereo partly drawn) has IC50 of ≥ 19 µM

Per the record, O=C1Nc2ccccc2C12N[C@H](Cc1ccccc1)[C@@H](c1ccc(Cl)cc1Cl)[C@@]21CN(/C=C/c2ccccc2)C/C(=C\c2ccc(Cl)cc2Cl)C1=O (stereo partly drawn) has IC50 of 22 µM

Per the record, Cc1ccc(/C=C2\CN(/C=C/c3ccccc3)C[C@]3(C2=O)[C@H](c2ccc(C)cc2)[C@@H](Cc2ccccc2)NC32C(=O)Nc3ccccc32)cc1 (stereo partly drawn) has IC50 of ≥ 19 µM

Per the record, O=C1Nc2ccccc2C12N[C@H](Cc1ccccc1)[C@@H](c1cccc([N+](=O)[O-])c1)[C@@]21CN(/C=C/c2ccccc2)C/C(=C\c2cccc([N+](=O)[O-])c2)C1=O (stereo partly drawn) has IC50 of ≥ 19 µM

Per the record, COc1ccc(/C=C2\CN(/C=C/c3ccccc3)C[C@]3(C2=O)[C@H](c2ccc(OC)cc2)[C@@H](Cc2ccccc2)NC32C(=O)Nc3ccccc32)cc1 (stereo partly drawn) has IC50 of ≥ 19 µM

Per the record, Cc1ccccc1/C=C1\CN(/C=C/c2ccccc2)C[C@]2(C1=O)[C@H](c1ccccc1C)[C@@H](Cc1ccccc1)NC21C(=O)Nc2ccccc21 (stereo partly drawn) has IC50 of 23.5 µM

Per the record, COc1cccc(/C=C2\CN(/C=C/c3ccccc3)C[C@]3(C2=O)[C@H](c2cccc(OC)c2)[C@@H](Cc2ccccc2)NC32C(=O)Nc3ccccc32)c1 (stereo partly drawn) has IC50 of ≥ 19 µM

Per the record, O=C1Nc2ccccc2C12N[C@H](Cc1ccccc1)[C@@H](c1ccc(Br)cc1)[C@@]21CN(/C=C/c2ccccc2)C/C(=C\c2ccc(Br)cc2)C1=O (stereo partly drawn) has IC50 of ≥ 19 µM

Per the record, O=C1Nc2ccccc2C12N[C@H](Cc1ccccc1)[C@@H](c1ccc(Cl)cc1)[C@@]21CN(/C=C/c2ccccc2)C/C(=C\c2ccc(Cl)cc2)C1=O (stereo partly drawn) has IC50 of ≥ 19 µM

Per the record, O=C1Nc2ccccc2C12N[C@H](Cc1ccccc1)[C@@H](c1ccccc1)[C@@]21CN(/C=C/c2ccccc2)C/C(=C\c2ccccc2)C1=O (stereo partly drawn) has IC50 of 19 µM

Per the record, Cc1cccc(/C=C2\CN(/C=C/c3ccccc3)C[C@]3(C2=O)[C@H](c2cccc(C)c2)[C@@H](Cc2ccccc2)NC32C(=O)Nc3ccccc32)c1 (stereo partly drawn) has IC50 of 21.8 µM

Per the record, O=C1Nc2ccccc2C12N[C@H](Cc1ccccc1)[C@@H](c1ccccc1Cl)[C@@]21CN(/C=C/c2ccccc2)C/C(=C\c2ccccc2Cl)C1=O (stereo partly drawn) has IC50 of ≥ 19 µM

---

- Tested on: MCF7
- procedureDetails: Anticancer activity against human MCF7 cells assessed as cell growth inhibition measured after 48 hrs by MTT assay
- Type: functional, cell-based
- setupConditions: MCF7, 48 h
measuredEndpoint: IC50

Measured IC50 (MCF7), entry "Cc1cc(=O)oc2cc(NC(=O)[C@@H]3CCCN3S(=O)(=O)c3ccccc3)ccc12" : 2.58 µM

Measured IC50 (MCF7), entry O=C(/C=C/c1cccc([N+](=O)[O-])c1)[C@H]1[C@H](c2cccc([N+](=O)[O-])c2)C2CSCN2C12C(=O)Nc1c(Br)cc(Br)cc12 (some centres not stated) : 4 µM

Measured IC50 (MCF7), entry Cc1ccc(C2CC(c3ccc(F)cc3)=NN2C(=O)CN2C(=O)CCC2=O)cc1 (configuration not stated) : 0.07 µM

Measured IC50 (MCF7), entry O=C(/C=C/c1ccc(F)cc1)[C@H]1[C@H](c2ccc(F)cc2)C2CSCN2C12C(=O)Nc1c(Br)cc(Br)cc12 (some centres not stated) : 2.5 µg/mL

Measured IC50 (MCF7), entry "CCOC(=O)[C@H]1CCCN1CC(=O)Nc1ccc2c(C)cc(=O)oc2c1" : 0.355 µM

Measured IC50 (MCF7), entry "O=C(CN1CCCC1)Nc1cc2ccccc2oc1=O" : 4.8 µM

Measured IC50 (MCF7), entry "Cc1cc(=O)oc2cc(NC(=O)CN3CCCC3)ccc12" : 4.8 µM

---

- Test system: K562
- procedureDetails: Anticancer activity against human K562 cells assessed as cell growth inhibition measured after 48 hrs by WST-1 assay
- Format: functional, cell-based
- setupConditions: K562, 48 h
I'd be grateful if you could share measured IC50 for these entries.
Quick note: give the figure in µM, leave out the unit.

Per the record, "COc1ccc(/C=C2\CCC[C@@]3(C2=O)[C@@H](c2ccc(OC)cc2)[C@@H]2CSCN2[C@]32C(=O)Nc3ccccc32)cc1" has IC50 of 14.7

Per the record, "O=C1/C(=C/c2ccc(Br)cc2)CCC[C@]12[C@@H](c1ccc(Br)cc1)[C@@H]1CSCN1[C@]21C(=O)Nc2ccccc21" has IC50 of 14.7

Per the record, "O=C1/C(=C/c2cccc(F)c2)CCC[C@]12[C@@H](c1cccc(F)c1)[C@@H]1CSCN1[C@]21C(=O)Nc2ccccc21" has IC50 of 15.7

The measured values listed here are drawn from ChEMBL document CHEMBL5360530.
